# credit: the kinase profiling compilation of Christmann-Franck et al. (2016)

# target-entity: DCLK2 (human) (UniProt Q8N568)
# Sequence (Q8N568 whole entry, looked up): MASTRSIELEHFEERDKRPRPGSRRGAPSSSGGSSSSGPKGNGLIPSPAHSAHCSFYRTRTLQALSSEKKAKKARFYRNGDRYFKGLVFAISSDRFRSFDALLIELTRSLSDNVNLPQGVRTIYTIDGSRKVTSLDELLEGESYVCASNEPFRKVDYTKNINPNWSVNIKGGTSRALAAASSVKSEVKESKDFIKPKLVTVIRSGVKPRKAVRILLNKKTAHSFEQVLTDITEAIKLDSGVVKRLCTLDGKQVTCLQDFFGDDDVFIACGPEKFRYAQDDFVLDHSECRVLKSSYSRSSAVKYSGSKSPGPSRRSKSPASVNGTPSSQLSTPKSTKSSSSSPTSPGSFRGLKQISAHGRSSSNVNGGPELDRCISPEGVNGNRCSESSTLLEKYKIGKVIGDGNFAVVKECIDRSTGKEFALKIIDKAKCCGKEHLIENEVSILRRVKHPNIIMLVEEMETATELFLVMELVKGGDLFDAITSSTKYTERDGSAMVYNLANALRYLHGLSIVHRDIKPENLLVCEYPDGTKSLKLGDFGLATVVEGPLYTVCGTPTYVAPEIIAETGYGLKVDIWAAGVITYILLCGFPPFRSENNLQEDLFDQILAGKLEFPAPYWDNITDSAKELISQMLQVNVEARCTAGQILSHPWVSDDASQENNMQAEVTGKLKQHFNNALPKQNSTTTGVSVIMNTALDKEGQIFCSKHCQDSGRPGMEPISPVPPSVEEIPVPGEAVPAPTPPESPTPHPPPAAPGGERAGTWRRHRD
# experiment-notes: KINOMEscan competition binding
# condition-notes: compound 10.0 µM
measured-metric: kinase still bound, per cent of control (%)

>>> observed("CCN1C(=O)CCN(C2CCCC2)c2nc(Nc3ccc(N4CCC(O)CC4)cn3)ncc21")
30
>>> observed("CN1C(=O)[C@H]2CCC[C@H]2N(C2CCCC2)c2nc(Nc3ccc(C(N)=O)cc3)ncc21")
18
>>> observed("COc1cc(C(=O)NC2CCN(C)CC2)ccc1Nc1ncc2c(n1)N(C1CCCC1)C(C)CC(=O)N2C (centres undefined)")
19
>>> observed("COc1cc(N2CCN(C)CC2)ccc1Nc1ncc2c(n1)N(C)c1ccccc1C(=O)N2C")
0.45
>>> observed("COc1cc(C(=O)NC2CCC(O)CC2)ccc1Nc1ncc2c(n1)N(C1CCCC1)[C@@H]1CCC[C@@H]1C(=O)N2C (some centres undefined)")
17
>>> observed("COc1cc(N2CCN(C)CC2)ccc1Nc1ncc2c(n1)N(C1CCCC1)C(C)CC(=O)N2C (centres undefined)")
4.5
>>> observed("O=C1NC(=O)/C(=C/c2c[nH]c(=O)c(-c3ccc(N4CCNCC4)nc3)c2)S1")
67
>>> observed("COc1cc(N2CCN(CCO)CC2)ccc1Nc1ncc2c(n1)N(C1CCCC1)CCC(=O)N2C")
14
>>> observed("COc1cc(C(=O)NC2CCN(C)CC2)ccc1Nc1ncc2c(n1)N(C1CCCC1)CCC(=O)N2C")
8.6

====

The entries below come with measured kinase still bound, per cent of control values attached.
# target-entity: WEE1 (human)
# experiment-notes: KINOMEscan competition binding
# condition-notes: compound 10.0 µM
measured-metric: kinase still bound, per cent of control (%)

>>> observed("CN1C(=O)c2ccccc2N(C)c2nc(NS(=O)(=O)c3ccc(N)cc3)ncc21")
99
>>> observed("CN1CCN(c2ccc(C(=O)Nc3ncc4c(n3)N(C)c3ccccc3C(=O)N4C)cc2)CC1")
100
>>> observed("COc1cc(N2CCN(C)CC2)ccc1Nc1ncc2c(n1)N(C)c1sccc1C(=O)N2C")
100
>>> observed("CN1C(=O)c2ccccc2N(C)c2nc(Nc3ccc(N4CCC(O)CC4)cc3)ncc21")
100
>>> observed("COc1cc(N2CCN(C)CC2)ccc1Nc1ncc2c(n1)N(C)c1ccccc1N(C)C2=O")
92

====

# target-entity: NEK5 (human) (UniProt Q6P3R8)
# Sequence (Q6P3R8 whole entry, looked up): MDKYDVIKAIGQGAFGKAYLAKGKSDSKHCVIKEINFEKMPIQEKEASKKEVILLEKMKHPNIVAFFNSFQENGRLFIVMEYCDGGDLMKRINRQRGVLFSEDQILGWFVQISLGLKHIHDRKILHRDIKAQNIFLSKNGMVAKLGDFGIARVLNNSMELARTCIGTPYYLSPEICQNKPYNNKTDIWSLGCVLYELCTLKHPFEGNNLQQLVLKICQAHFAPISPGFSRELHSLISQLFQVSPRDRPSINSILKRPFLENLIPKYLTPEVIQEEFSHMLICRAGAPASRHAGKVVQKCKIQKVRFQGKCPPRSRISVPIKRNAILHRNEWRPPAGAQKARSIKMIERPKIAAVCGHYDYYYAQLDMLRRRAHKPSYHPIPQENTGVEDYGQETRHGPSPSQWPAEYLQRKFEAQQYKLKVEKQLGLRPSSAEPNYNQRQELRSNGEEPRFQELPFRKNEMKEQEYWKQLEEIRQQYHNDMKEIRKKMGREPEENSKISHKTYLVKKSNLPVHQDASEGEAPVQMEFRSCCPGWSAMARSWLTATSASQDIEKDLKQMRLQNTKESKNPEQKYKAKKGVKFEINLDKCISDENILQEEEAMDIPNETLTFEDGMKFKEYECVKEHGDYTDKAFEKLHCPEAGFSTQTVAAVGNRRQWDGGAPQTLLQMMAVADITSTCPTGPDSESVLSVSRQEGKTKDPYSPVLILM
# experiment-notes: KINOMEscan competition binding
# condition-notes: compound 10.0 µM
Reported kinase still bound, per cent of control values follow for various molecules
measured-metric: kinase still bound, per cent of control (%)

>>> observed("CN1C(=O)[C@H]2CCC[C@H]2N(C2CCCC2)c2nc(Nc3ccc4ncccc4c3)ncc21")
11
>>> observed("COc1cc(N2CCN(C)CC2)ccc1Nc1ncc2c(n1)N(C)c1ccccc1N(C)C2=O")
100
>>> observed("CN1C(=O)c2ccccc2N(C)c2nc(NS(=O)(=O)c3ccc(N)cc3)ncc21")
100
>>> observed("CN1CCN(c2ccc(C(=O)Nc3ncc4c(n3)N(C)c3ccccc3C(=O)N4C)cc2)CC1")
100
>>> observed("COc1cc(N2CCC(O)CC2)ccc1Nc1ncc2c(n1)N1CCc3cccc(c31)C(=O)N2C")
81
>>> observed("COc1cc(N2CCN(C)CC2)ccc1Nc1ncc2c(n1)Nc1ccccc1NC2=O")
100
>>> observed("CN1C(=O)c2ccccc2N(C)c2nc(Nc3ccc(N4CCC(O)CC4)cc3)ncc21")
100
>>> observed("CN1C(=O)[C@H]2CCC[C@H]2N(C2CCCC2)c2nc(Nc3ccc(C(N)=O)cc3)ncc21")
9
>>> observed("COc1cc(N2CCN(C)CC2)ccc1Nc1ncc2c(n1)N(C)c1sccc1C(=O)N2C")
94
>>> observed("COc1cc(N2CCN(C)CC2)ccc1Nc1ncc2c(n1)N(C1CCCC1)C(C)CC(=O)N2 (stereo unspecified)")
30
>>> observed("O=C1NC(=O)/C(=C/c2c[nH]c(=O)c(-c3ccc(N4CCNCC4)nc3)c2)S1")
100

====

# target-entity: CAMK4 (human)
# experiment-notes: KINOMEscan competition binding
# condition-notes: compound 10.0 µM
The following compounds are shown together with reported kinase still bound, per cent of control values.
measured-metric: kinase still bound, per cent of control (%)

>>> observed("COc1cc(N2CCN(C)CC2)ccc1Nc1ncc2c(n1)N(C)c1ccccc1N(C)C2=O")
100
>>> observed("O=C1NC(=O)/C(=C/c2c[nH]c(=O)c(-c3ccc(N4CCNCC4)nc3)c2)S1")
100
>>> observed("CN1C(=O)c2ccccc2N(C)c2nc(Nc3ccc(N4CCC(O)CC4)cc3)ncc21")
100
>>> observed("CN1C(=O)c2ccccc2N(C)c2nc(NS(=O)(=O)c3ccc(N)cc3)ncc21")
100
>>> observed("COc1cc(N2CCN(C)CC2)ccc1Nc1ncc2c(n1)N(C)c1sccc1C(=O)N2C")
80
>>> observed("COc1cc(N2CCN(C)CC2)ccc1Nc1ncc2c(n1)Nc1ccccc1NC2=O")
100
>>> observed("N=C1NC(=O)/C(=C/c2ccc(-c3csc4ccccc34)o2)S1")
25
>>> observed("COc1cc(N2CCC(O)CC2)ccc1Nc1ncc2c(n1)N1CCc3cccc(c31)C(=O)N2C")
100
>>> observed("CN1CCN(c2ccc(C(=O)Nc3ncc4c(n3)N(C)c3ccccc3C(=O)N4C)cc2)CC1")
100

====

# Test system: EGFR (human), P00533 [L861Q]
# experiment-notes: KINOMEscan competition binding
# condition-notes: compound 10.0 µM
measured-metric: kinase still bound, per cent of control (%)

>>> observed("COc1cc(N2CCC(C)(O)CC2)ccc1Nc1ncc2c(n1)N(C1CCCC1)CCC(=O)N2C")
6.6
>>> observed("O=C1NC(=O)/C(=C/c2ccc(-c3ccc(F)cc3O)o2)S1")
28
>>> observed("CN1C(=O)c2ccccc2N(C)c2nc(Nc3ccc(N4CCC(O)CC4)cc3)ncc21")
100
>>> observed("COc1cc(C(=O)NC2CCN(C)CC2)ccc1Nc1ncc2c(n1)N(CCc1ccccc1)CCC(=O)N2C")
28
>>> observed("COc1cc(N2CCN(C)CC2)ccc1Nc1ncc2c(n1)N(C)c1sccc1C(=O)N2C")
46
>>> observed("COc1cc(N2CCC(O)CC2)ccc1Nc1ncc2c(n1)N(c1ccccc1)CCC(=O)N2C")
25
>>> observed("COc1cc(N2CCN(C)CC2)ccc1Nc1ncc2c(n1)N(c1ccccc1)CCC(=O)N2")
21
>>> observed("COc1cc(N2CCC(O)CC2)ccc1Nc1ncc2c(n1)N1CCc3cccc(c31)C(=O)N2C")
64
>>> observed("COc1cc(N2CCN(C)CC2)ccc1Nc1ncc2c(n1)N(C)c1ccccc1N(C)C2=O")
85

====

# target-entity: MAP2K1 (human)
# experiment-notes: KINOMEscan competition binding
# condition-notes: compound 10.0 µM
measured-metric: kinase still bound, per cent of control (%)

>>> observed("COc1cc(N2CCN(C)CC2)ccc1Nc1ncc2c(n1)N(C)c1sccc1C(=O)N2C")
90
>>> observed("O=C1NC(=O)/C(=C/c2c[nH]c(=O)c(-c3ccc(N4CCNCC4)nc3)c2)S1")
55
>>> observed("CN1C(=O)c2ccccc2N(C)c2nc(NS(=O)(=O)c3ccc(N)cc3)ncc21")
100
>>> observed("CN1CCN(c2ccc(C(=O)Nc3ncc4c(n3)N(C)c3ccccc3C(=O)N4C)cc2)CC1")
100
>>> observed("N=C1NC(=O)/C(=C/c2ccc(-c3cncc4ccccc34)o2)S1")
26
>>> observed("COc1cc(N2CCC(O)CC2)ccc1Nc1ncc2c(n1)N1CCc3cccc(c31)C(=O)N2C")
100
>>> observed("COc1cc(N2CCN(C)CC2)ccc1Nc1ncc2c(n1)Nc1ccccc1NC2=O")
71
>>> observed("COc1cc(N2CCN(C)CC2)ccc1Nc1ncc2c(n1)N(C)c1ccccc1N(C)C2=O")
85
>>> observed("CN1C(=O)c2ccccc2N(C)c2nc(Nc3ccc(N4CCC(O)CC4)cc3)ncc21")
100

====

# target-entity: DAPK2 (human) (UniProt Q9UIK4)
# Sequence (Q9UIK4 whole entry, looked up): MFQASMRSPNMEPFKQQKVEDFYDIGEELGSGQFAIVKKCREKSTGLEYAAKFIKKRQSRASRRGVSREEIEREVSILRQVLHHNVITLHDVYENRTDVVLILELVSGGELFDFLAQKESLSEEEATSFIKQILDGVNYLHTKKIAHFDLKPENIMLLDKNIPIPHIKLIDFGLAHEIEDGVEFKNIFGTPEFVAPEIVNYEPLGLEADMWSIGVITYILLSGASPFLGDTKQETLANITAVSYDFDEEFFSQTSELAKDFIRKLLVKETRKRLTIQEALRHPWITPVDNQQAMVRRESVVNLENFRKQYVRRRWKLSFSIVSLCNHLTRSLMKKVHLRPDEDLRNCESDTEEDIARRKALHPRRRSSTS
# experiment-notes: KINOMEscan competition binding
# condition-notes: compound 10.0 µM
measured-metric: kinase still bound, per cent of control (%)

>>> observed("O=C1NC(=O)/C(=C/c2cc(-c3ccc(N4CCNCC4)nc3)c[nH]c2=O)S1")
10
>>> observed("NS(=O)(=O)c1ccc(-c2cccc(/C=C3\\SC(=O)NC3=O)c2)cc1")
26
>>> observed("COc1cc(C(=O)NC2CCN(C)CC2)ccc1Nc1ncc2c(n1)N(C1CCC(O)CC1)CCC(=O)N2C (stereo not given)")
24
>>> observed("COc1cc(N2CCN(C)CC2)ccc1Nc1ncc2c(n1)N(C)c1ccccc1N(C)C2=O")
84
>>> observed("CS(=O)C1=NC(=O)/C(=C/c2ccc(-c3ccc(S(N)(=O)=O)cc3)o2)S1 (stereo not given)")
3.4
